src = paper PMC10247784

- Study target: mouse Tas2r105 (Mus musculus, UniProt Q9JKT4)
- Construct: expressed in transfected cells; host or cells: HEK293T-Gα16gust44
- Sequence (Q9JKT4 1-300): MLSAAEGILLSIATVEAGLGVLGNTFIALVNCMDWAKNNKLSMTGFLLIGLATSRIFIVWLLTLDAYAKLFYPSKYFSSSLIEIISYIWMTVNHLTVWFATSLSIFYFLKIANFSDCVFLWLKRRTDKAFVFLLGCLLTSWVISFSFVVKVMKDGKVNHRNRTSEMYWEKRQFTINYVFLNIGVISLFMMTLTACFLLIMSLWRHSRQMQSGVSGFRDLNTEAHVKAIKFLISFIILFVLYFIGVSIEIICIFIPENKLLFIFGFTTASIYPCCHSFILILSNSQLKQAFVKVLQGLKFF
- Assay comment: Calcium imaging assay (FLIPR), HEK293T-Gα16gust44 cells transfected with mouse Tas2r105
- Type: cell-based
- Assay context: Time 44.781 s
Parameter: RLU (RLU)
# unit: RLU | format: bare number

> print(dat)
                               smiles.entry  uom  test.result
1  C[C@H](CCC(=O)NCC(=O)O)[C@H]1CC[C@H]2[C@@H]3[C@H](O)C[C@@H]4C[C@H](O)CC[C@]4(C)[C@H]3C[C@H](O)[C@]12C  RLU      160.969

What measured RLU goes with C[C@H](CCC(=O)O)[C@H]1CC[C@H]2[C@@H]3CC[C@@H]4C[C@H](O)CC[C@]4(C)[C@H]3C[C@H](O)[C@]12C ?
-11.9371

Which RLU is reported for this molecule? C[C@H](CCC(=O)O)[C@H]1CC[C@H]2[C@@H]3CC[C@@H]4C[C@H](O)CC[C@]4(C)[C@H]3CC[C@]12C
47.3635

Could you tell me which RLU is on file for C[C@H](CCC(=O)O)[C@H]1CC[C@H]2[C@@H]3[C@H](O)C[C@@H]4C[C@H](O)CC[C@]4(C)[C@H]3C[C@H](O)[C@]12C ?
139.548
